Molecular target: hCA I (Homo sapiens)
Sequence (P00915 whole entry): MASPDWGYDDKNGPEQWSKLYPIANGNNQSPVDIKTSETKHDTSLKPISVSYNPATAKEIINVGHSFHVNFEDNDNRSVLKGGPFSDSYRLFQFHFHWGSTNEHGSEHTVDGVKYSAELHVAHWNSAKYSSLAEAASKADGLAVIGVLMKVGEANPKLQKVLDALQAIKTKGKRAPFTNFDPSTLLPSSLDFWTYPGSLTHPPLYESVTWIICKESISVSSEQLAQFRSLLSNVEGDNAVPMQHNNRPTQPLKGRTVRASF
Assay: stopped-flow CO2 hydrase assay, hCA I
Settings: recombinant enzyme, 15 min preincubation, pH 8.3, mean from 3 assays
test readout: log10 of Ki (log10 of the value in nM)
In our notation, the value equals log10 of Ki in nM.

Please review the following examples before continuing.
CC(Nc1nc(NCCc2ccc(S(N)(=O)=O)cc2)nc(NC(C)C(=O)O)n1)C(=O)O (stereo not shown) = 2.90
NC(=O)CCC(Nc1nc(NCc2ccc(S(N)(=O)=O)cc2)nc(NC(CCC(N)=O)C(=O)O)n1)C(=O)O (stereo not shown) = 2.84
NS(=O)(=O)c1ccc(CCNc2nc(NC(Cc3ccc(O)cc3)C(=O)O)nc(NC(Cc3ccc(O)cc3)C(=O)O)n2)cc1 (stereo not shown) = 1.78
NS(=O)(=O)c1ccc(CNc2nc(NC(Cc3c[nH]c4ccccc34)C(=O)O)nc(NC(Cc3c[nH]c4ccccc34)C(=O)O)n2)cc1 (stereo not shown) = 1.48
CC(Nc1nc(NCc2ccc(S(N)(=O)=O)cc2)nc(NC(C)C(=O)O)n1)C(=O)O (stereo not shown) = 2.80

// sample CC(O)C(Nc1nc(NCCc2ccc(S(N)(=O)=O)cc2)nc(NC(C(=O)O)C(C)O)n1)C(=O)O (stereo not shown) , its log10 of Ki was 2.92

Reported log10 of Ki ( NS(=O)(=O)c1ccc(CNc2nc(NC(CO)C(=O)O)nc(NC(CO)C(=O)O)n2)cc1 (stereo not shown) ) = 2.81
